Target: T1, Tat39 (Tat3B; HIV Tat residues 48-86) (HIV-1, UniProt P04608 P04608:48-86)
T1 chain: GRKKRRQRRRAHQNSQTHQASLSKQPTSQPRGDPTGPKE
Assay: EMSA; 5 pM oligo; 1:1 Kd; Krel 4
Conditions: protein: synthetic; tags: synthetic 39-mer peptide made by solid phase synthesis, UCSF Biotechnology Resource Core; label: 5'-32P; hairpin with bulge
pKd: −log10 of the molar value.
PARAMETER: pKd

INSERT INTO measurements (binder, result) VALUES
  ('GCCAGAUCUGAGCCUGGGAGCUCUCUGGC (XNA, 2''-OMe, PS) [2''-OMe, P=S delta-TAR #2195 29-mer (16-45(-A17))]', '> 8.00');
